The following binders are listed with their measured pKd values.
- TEST SYSTEM: T1, APBA1_2, Q02410
- T1 sequence (Q02410 742-832, limits assumed, looked up): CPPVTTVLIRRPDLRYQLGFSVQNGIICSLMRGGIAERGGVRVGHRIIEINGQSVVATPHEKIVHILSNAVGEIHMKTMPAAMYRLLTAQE
- METHOD SUMMARY: holdup assay
- Design: key: below the threshold = too weak to quantify, mostly under pKd 3.1 to 4
- PROTOCOL CONDITIONS: plain residues with an end cap or a label only (N-terminal biotin on a linker: ttds)
# output: bare number, no unit

Query: Requested field: pKd. Item: IYVPEAQTRL [DLGAP4, Q9Y2H0]
Result: 3.64

More entries:
Query: Requested field: pKd. Item: IDNDTESTAL [ARHGAP17, Q68EM7]
Result: 3.89

Query: Same lookup for SRPQRTQTQV [HPV67-E6, A4U7F2] , please.
Result: 3.54
